Taken from PubChem BioAssay (NCI).

# Test system: CCRF-CEM leukemia
# assay_summary: NCI-60 one-dose screen, 48 h
# condition_set: 10 µM unless noted
This is part of a sample that, as a whole, favours compounds with a hit. Of some 83,000 tested, about 20% had one in any assay. Activity calls are given as the source filed them. Rule for the calls: active = growth percent below 10; inactive = the rest.
Parameter call: string, one of class 1 = active, class 0 = inactive

Example cases with answers are listed next.
IN: Assay outcome for COc1cc2nc(C(=O)N3CCCCC3)cc(Nc3ccccc3)c2cc1OC : what was it?
OUT: class 0

IN: Assay outcome for O=c1c2ccccc2sc2c(N3CCCC3)nc3ccccc3c12 : what was it?
OUT: class 0

IN: Assay outcome for Fc1ccc(Nc2ncnc3ccc(-c4cn[nH]c4)cc23)cc1Cl : what was it?
OUT: class 0

IN: Assay outcome for CO[C@H]1/C=C/C=C/C=C/C[C@H](OC(=O)[C@@H](C)NC(=O)C2CCCCC2)[C@H](C)[C@@H](O)/C(C)=C\CCC2=CC(=O)C=C(NC(=O)C1)C2=O : what was it?
OUT: class 1

IN: Assay outcome for O=c1c2ccccc2sc2c(NCCN3CCOCC3)nc3ccccc3c12 : what was it?
OUT: class 0

Okay, next one:
IN: Assay outcome for Cc1c(C(C)(C)C)cc(C(C)(C)C)c2c1CN(C)CO2 : what was it?
OUT: class 0
